- MEASURED ON: High affinity cGMP-specific 3',5'-cyclic phosphodiesterase 9A (Homo sapiens)
- Sequence (O76083 whole entry): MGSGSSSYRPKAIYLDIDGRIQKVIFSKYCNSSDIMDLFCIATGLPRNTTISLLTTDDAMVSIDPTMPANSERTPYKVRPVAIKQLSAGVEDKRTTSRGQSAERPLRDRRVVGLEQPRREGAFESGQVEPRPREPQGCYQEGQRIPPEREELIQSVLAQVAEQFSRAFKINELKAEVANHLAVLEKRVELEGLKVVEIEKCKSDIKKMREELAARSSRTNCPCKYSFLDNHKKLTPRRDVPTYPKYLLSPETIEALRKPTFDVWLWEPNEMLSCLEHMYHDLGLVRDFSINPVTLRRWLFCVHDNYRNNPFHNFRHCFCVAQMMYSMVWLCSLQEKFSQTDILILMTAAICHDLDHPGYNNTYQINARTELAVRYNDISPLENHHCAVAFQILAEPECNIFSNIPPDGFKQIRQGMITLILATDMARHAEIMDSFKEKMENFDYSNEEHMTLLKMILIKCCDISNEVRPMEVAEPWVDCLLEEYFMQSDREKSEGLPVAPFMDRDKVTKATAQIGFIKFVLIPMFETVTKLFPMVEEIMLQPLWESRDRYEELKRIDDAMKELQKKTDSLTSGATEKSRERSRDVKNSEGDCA
pIC50: −log10 of the molar value.
We begin with a simple list: items and their reported pIC50.

* CC(C)=CCc1c(O)cc(-c2cc3ccc(O)cc3o2)cc1O [MORACIN C] | < 4.00

Then this compound:
Request body: readout pIC50, system High affinity cGMP-specific 3',5'-cyclic phosphodiesterase 9A (Homo sapiens), query Oc1cc(O)cc(-c2cc3ccc(O)cc3o2)c1 [MORACIN M] . Return the value.
< 4.00
